Measured pKi by item
assayed-target: HIV protease (Human immunodeficiency virus type 1 group M subtype B, UniProt P04585)
Construct: A third viral enzyme known as protease then cleaves the polyproteins
measurement-protocol: Enzymatic Assay for Determining the Inhibition Constant (Ki) of Synthetic Compounds Targeting the HIV Protease (fluorometric FRET assay)
Assay type: biochemical
The scale used: pKi is minus the common logarithm of the concentration in molar units.

{"smiles-record": "Cc1ccc(S(=O)(=O)N(CC(C)C)[C@@H](CCCCNC(=O)[C@H](Cc2ccccc2)NC(=O)N2CCOCC2)C(=O)O)cc1", "pKi": 9.05}
{"smiles-record": "Cc1ccc(S(=O)(=O)N(CC(C)C)[C@H](CO)CCCCNC(=O)[C@H](CC#N)NS(=O)(=O)c2ccccc2)cc1", "pKi": 7.10}
{"smiles-record": "CC(=O)N[C@@H](Cc1ccccc1)C(=O)NCCCC[C@@H](C(=O)O)N(CC(C)C)S(=O)(=O)c1ccc(C)cc1", "pKi": 9.32}

Moving on to the next compound.
**Q:** Request the reported pKi associated with Cc1ccc(S(=O)(=O)N(CC(C)C)[C@@H](CCCCNC(=O)[C@@H](N)[C@@H](C)OCc2ccccc2)C(=O)O)cc1
**A:** 8.00

* * *

assayed-target: HIV protease (Human immunodeficiency virus type 1 group M subtype B, UniProt P04585)
Construct: A third viral enzyme known as protease then cleaves the polyproteins
measurement-protocol: Enzymatic Assay for Determining the Inhibition Constant (Ki) of Synthetic Compounds Targeting the HIV Protease (fluorometric FRET assay)
Format: biochemical
From the text: Enzymatic Assay for Determining the Inhibition Constant (Ki) of Synthetic Compounds Targeting the HIV Protease This is a fluorometric assay based on the cleavage by protease of a substrate carrying a donor group (EDANS) and an acceptor group (DABCYL) on each side of the cleavage site, interacting together through fluorescence resonance energy transfer (FRET) as described by Matayoshi et al. (Science 247:[…], 1990). […] Graphs are traced and the Ki determined using GraphPad Prism software v. […]
Measured pKi by item
The scale used: pKi is minus the common logarithm of the concentration in molar units.

Example cases with answers are listed next.
{"compound": "Cc1ccc(S(=O)(=O)N[C@@H](CO)C(=O)NCCCC[C@@H](C(=O)O)N(CC(C)C)S(=O)(=O)c2ccc(C)cc2)cc1", "pKi": 7.03}
{"compound": "Cc1ccc(S(=O)(=O)N(CC(=O)NCCCC[C@@H](CO)N(CC(C)C)S(=O)(=O)c2ccc(C)cc2)Cc2ccccc2)cc1", "pKi": 7.00}
{"compound": "Cc1ccc(S(=O)(=O)N(CC(C)C)C(CCCCNC(=O)C(Cc2ccccc2)NC(=O)OC2CCOC2)C(=O)O)cc1 (stereo not drawn)", "pKi": 8.85}
{"compound": "COc1ccc(S(=O)(=O)N(CC2CCCC2)[C@@H](CCCCNC(=O)[C@H](Cc2c[nH]c3ccccc23)NC(=O)OC(C)(C)C)C(=O)O)cc1", "pKi": 8.28}

**Q:** Request the reported pKi associated with Cc1ccc(S(=O)(=O)N(CC(C)C)[C@@H](CCCCNC(=O)[C@H](Cc2ccccc2)NC(=O)OCc2ccccc2)C(=O)O)cc1
**A:** 8.64

* * *

assayed-target: HIV protease (Human immunodeficiency virus type 1 group M subtype B)
Construct: A third viral enzyme known as protease then cleaves the polyproteins
measurement-protocol: Enzymatic Assay for Determining the Inhibition Constant (Ki) of Synthetic Compounds Targeting the HIV Protease (fluorometric FRET assay)
Type: biochemical
Text: Enzymatic Assay for Determining the Inhibition Constant (Ki) of Synthetic Compounds Targeting the HIV Protease This is a fluorometric assay based on the cleavage by protease of a substrate carrying a donor group (EDANS) and an acceptor group (DABCYL) on each side of the cleavage site, interacting together through fluorescence resonance energy transfer (FRET) as described by Matayoshi et al. (Science 247:[…], 1990). […] Graphs are traced and the Ki determined using GraphPad Prism software v. […]
value-type: pKi
The scale used: pKi is minus the common logarithm of the concentration in molar units.

{"molecule": "Cc1ccc(S(=O)(=O)N[C@@H](Cc2c[nH]c3ccccc23)C(=O)NCCCC[C@@H](CO)N(CC(C)C)S(=O)(=O)c2ccc(C)cc2)cc1 [Example 97]", "pKi": 8.44}

**Q:** Form: Entry = Cc1ccc(S(=O)(=O)N[C@@H](CCC(N)=O)C(=O)NCCCC[C@@H](C(=O)O)N(CC(C)C)S(=O)(=O)c2ccc(C)cc2)cc1 [Example 34] | System = HIV protease (Human immunodeficiency virus type 1 group M subtype B) | pKi = ____
**A:** 7.02

**Q:** Form: Entry = Cc1ccc(S(=O)(=O)N(CC(C)C)[C@@H](CCCCNC(=O)[C@H](CC2CCCCC2)NC(=O)OCC2c3ccccc3-c3ccccc32)C(=O)O)cc1 [Example 37] | System = HIV protease (Human immunodeficiency virus type 1 group M subtype B) | pKi = ____
**A:** 7.55

**Q:** Form: Entry = Cc1ccc(S(=O)(=O)N[C@@H](Cc2c[nH]c3ccccc23)C(=S)NCCCC[C@@H](CO)N(CC(C)C)S(=O)(=O)c2ccc(C)cc2)cc1 [Example 102] | System = HIV protease (Human immunodeficiency virus type 1 group M subtype B) | pKi = ____
**A:** 7.29

**Q:** Form: Entry = Cc1ccc(S(=O)(=O)N(CC(C)C)[C@H](CO)CCCCNC(=O)[C@H](Cc2ccccc2)NS(=O)(=O)c2ccc(C(F)(F)F)cc2)cc1 [Example 127] | System = HIV protease (Human immunodeficiency virus type 1 group M subtype B) | pKi = ____
**A:** 6.79

Entry source: patent US6610689B2
